- subject of test: biotinylated CD59 (Homo sapiens, UniProt P13987)
- Construct: Recombinant soluble human CD59 with an additional C-terminal cysteine residue
- Sequence (P13987 26-102 limits assumed): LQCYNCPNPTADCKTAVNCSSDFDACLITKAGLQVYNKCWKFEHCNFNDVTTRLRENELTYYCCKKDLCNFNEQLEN
- test description: mRNA-display cyclic peptide screen against CD59-biotin, NGS abundance after 6th selection round
- experimental parameters: percentage of the pool averaged across the two sequencing samples, sheet R6
API: label(entry) gives class 1 if the entry's Percentage Average is strictly smaller than 0.04%; on equality or larger values it gives class 0.

Example results:
Just wondering, is Percentage Average of CFAHRITDPDTQ below 0.04%? class 1

Determine whether this sequence shows Percentage Average lower than 0.04% (ties excluded): SWTWGNRSSVRG class 0

Take the sequence CFSNRISGPAV and say whether its Percentage Average is less than 0.04%. class 0

Given the entry IIRGNRLTKYE , would its reported Percentage Average be below 0.04%? class 1

New cases:
Report whether reported Percentage Average is lower than 0.04% (strictly) for VSRGDSTYTLF class 1

Item SSWAQLPCKR : Percentage Average beneath 0.04%, strictly? class 1

Lab log: compare recorded Percentage Average with 0.04%; is it strictly lower for CYGGRTFIYARS ? class 1

----------
- subject of test: biotinylated CD59 (Homo sapiens)
- Construct: Recombinant soluble human CD59 with an additional C-terminal cysteine residue
- Sequence (P13987 26-102 limits assumed): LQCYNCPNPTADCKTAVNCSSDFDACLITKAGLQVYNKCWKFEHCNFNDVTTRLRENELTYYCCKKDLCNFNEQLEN
- test description: mRNA-display cyclic peptide screen against CD59-biotin, NGS abundance after 6th selection round
- experimental parameters: average of Seq I and Seq II, sheet R6
Below is a list of entries, each paired with its recorded Percentage of the pool, averaged across the two sequencing samples value.

Please give the measured Percentage of the pool, averaged across the two sequencing samples for this sequence: CFAGRLTIDAAAAAAARTGGG 0.018%

Can you share its Percentage of the pool, averaged across the two sequencing samples? I mean this sequence: AISGGRDYTRG 0.012%

So what's the measured Percentage of the pool, averaged across the two sequencing samples for this one? CFQNRMAYGDI 0.012%

New cases:
Could you tell me which Percentage of the pool, averaged across the two sequencing samples is on file for TFRSRTSCGAV ? 0.014%

Looking for the measured Percentage of the pool, averaged across the two sequencing samples of FVRGDLYSVIG , can you help? 0.013%

For the sequence shown here, CFAGRLAIDAV , give the reported Percentage of the pool, averaged across the two sequencing samples. 0.015%

----------
- subject of test: biotinylated CD59 (Homo sapiens)
- Construct: Recombinant soluble human CD59 with an additional C-terminal cysteine residue
- Sequence (P13987 26-102 limits assumed): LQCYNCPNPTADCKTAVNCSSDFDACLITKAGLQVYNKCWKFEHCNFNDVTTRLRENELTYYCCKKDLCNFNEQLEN
- test description: mRNA-display cyclic peptide screen against CD59-biotin, NGS abundance after 6th selection round
- experimental parameters: raw NGS counts of peptide sequence, sequencing sample Seq I, sheet R6 (6th selection round)
parameter measured: Counts Seq I
No unit in the answer, please; the number alone is enough.

The following sequences have reported results that may help.
What Counts Seq I appears in the records for this sequence with biotinylated CD59 (Homo sapiens)? LVTGNRDHTRG 100

Hi! What's the reported Counts Seq I for CFAHRITDPDTQ on biotinylated CD59 (Homo sapiens)? 100

Shifting focus to the sequence that follows.
Checklist item: Counts Seq I tested on biotinylated CD59 (Homo sapiens), entry HCWVRGSRSYT , value? 97
